The reported measurements were obtained from the supplement of paper PMC6555819.

Each entry below lists one item and its recorded PBM binding z-score value.
test system: RARg homodimer (NR concentration 270 nM); experiment: PBM binding z-score (relative to random genomic background probes); higher = stronger binding; sequences stand for … in GC…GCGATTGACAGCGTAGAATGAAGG
API doc: respond with a numeric literal and nothing else, no unit.

Recorded PBM binding z-score, per entry:
TCATATAGGTAATACAGGTGAAAATCGGCATCTA	0.82
CCTACTGGGCCACGAAAGGTCATCGATTCAGTGA	4.75

Record summary for "CCTACTGGGCCAAAAAGGTCTTTGATGCCGATAA" : reported PBM binding z-score = -0.013

Record summary for "TCTAGTTGGTCACGGAGGTCGCACACGACGGGTA" : reported PBM binding z-score = 2.3
